Reference source: patent US20040122089A1

# Measured Target: CB1 receptors (Rattus norvegicus, UniProt P20272)
# Sequence (P20272 whole entry): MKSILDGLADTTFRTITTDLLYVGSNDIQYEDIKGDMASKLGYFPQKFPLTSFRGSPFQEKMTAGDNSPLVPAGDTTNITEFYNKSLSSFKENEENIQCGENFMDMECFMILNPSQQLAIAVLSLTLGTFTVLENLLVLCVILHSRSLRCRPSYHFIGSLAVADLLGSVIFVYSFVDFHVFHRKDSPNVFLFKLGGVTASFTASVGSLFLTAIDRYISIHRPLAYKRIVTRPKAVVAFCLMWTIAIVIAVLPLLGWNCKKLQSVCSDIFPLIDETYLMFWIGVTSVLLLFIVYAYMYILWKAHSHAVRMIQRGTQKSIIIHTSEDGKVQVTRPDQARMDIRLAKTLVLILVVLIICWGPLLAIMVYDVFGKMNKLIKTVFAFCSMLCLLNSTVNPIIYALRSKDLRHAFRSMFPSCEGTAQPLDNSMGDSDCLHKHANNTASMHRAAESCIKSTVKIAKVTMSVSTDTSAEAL
# Assay Info: CB1 receptor binding, [3H]CP55940, whole rat brain membranes (Example 3)
# Recorded Conditions: read-out: CB1 affinity Ki
pKi: −log10 of the molar value.
# cutoff 6 applies to pKi; >= gives Fulfilled, < gives Not fulfilled

mol_smiles=CCCCC/C=C\C/C=C\C/C=C\C/C=C\CCCNC(=O)NCc1ccc(O)c(OC)c1 class="Not fulfilled"
mol_smiles=CCCCC/C=C\C/C=C\C/C=C\C/C=C\CCCNC(=S)NCc1ccc(O)c(OC)c1 class="Not fulfilled"
mol_smiles=CCCCC/C=C\C/C=C\C/C=C\C/C=C\CCCC(=O)NCc1ccc(OC(=O)CCCN2CCOCC2)c(OC)c1 class=Fulfilled
mol_smiles=CCCCC/C=C\C/C=C\C/C=C\C/C=C\CCCNC(=S)NCc1ccc(O)c(Cl)c1 class="Not fulfilled"
mol_smiles=CCCCC/C=C\C/C=C\C/C=C\C/C=C\CCCC(=O)NCc1ccc(O)c(Cl)c1 class=Fulfilled
mol_smiles=CCCCC/C=C\C/C=C\C/C=C\C/C=C\CCCC(=O)NCc1cccc(OC)c1 class=Fulfilled
mol_smiles=CCCCC/C=C\C/C=C\C/C=C\C/C=C\CCCC(=O)N(C)Cc1ccc(O)c(OC)c1 class="Not fulfilled"
